The entries below come with measured inhibition of growth at 0.05 µg/mL values attached.
Tested on: Leptosphaeria nodorum (LEPTNO)
experimentalProtocol: In vitro fungitoxicity of hydrazones with and without copper towards Leptosphaeria nodorum (Example 26)
Assay type: cell-based
statedConditions: Parastagonospora nodorum, 72 h, copper-minus medium; test compound Concn. 0.05 μg/mL; 72 h at 25° C.; read-out: LEPTNO % Inhn. Minus Copper Observed
Field note: include the unit after the figure.

C/C(=N\NC(=O)c1ccccc1O)c1cc(Cl)cc(Cl)c1O [Example 471] : 7.9%
O=C(N/N=C/c1c(O)cccc1C(F)(F)F)c1ccccc1 [Example 297] : 0%
C/C(=N\NC(=O)c1ccccc1O)c1cc(Br)cc(Br)c1O [Example 550] : 4.6%
O=C(N/N=C/c1cccc(Cl)c1O)c1cccc(F)c1 [Example 425] : 17.5%
C/C(=N\NC(=O)c1cccc(Cl)c1)c1cc(Br)cc(Br)c1O [Example 544] : 6.9%

O=C(N/N=C/c1cccc(Cl)c1O)c1ccccc1O [Example 431] on Leptosphaeria nodorum (LEPTNO) gives inhibition of growth at 0.05 µg/mL = 8.5%

COc1cccc(/C(C)=N/NC(=O)c2ccccc2Br)c1O [Example 467] on Leptosphaeria nodorum (LEPTNO) gives inhibition of growth at 0.05 µg/mL = 0%

COc1cccc(C(=O)N/N=C(\C)c2cc(Cl)cc(Cl)c2O)c1O [Example 484] on Leptosphaeria nodorum (LEPTNO) gives inhibition of growth at 0.05 µg/mL = 12.6%

C/C(=N\NC(=O)c1cccc(C)c1O)c1cc(Cl)cc(Cl)c1O [Example 565] on Leptosphaeria nodorum (LEPTNO) gives inhibition of growth at 0.05 µg/mL = 12.2%

###

The entries below come with measured melting point values attached.

Example molecules with recorded melting point:
C/C(=N\NC(=O)c1ccc(Br)cc1)c1ccccc1O [Example 458] : 218 to 221 °C
O=C(N/N=C/c1ccc(Cl)cc1O)c1cccc([N+](=O)[O-])c1 [Example 393] : 233 to 238 °C
Cc1cccc(C(=O)N/N=C/c2cccc(C(F)(F)F)c2O)c1 [Example 343] : 188 to 190 °C

So, O=C(N/N=C(/c1cc(Cl)cc(Cl)c1O)C(F)(F)F)c1ccccc1 [Example 587] ? Its melting point was 195 to 196 °C

So, O=C(N/N=C/c1cc(Br)cc(Br)c1O)c1ccc2ccccc2c1 [Example 111] ? Its melting point was 237 to 239 °C

So, O=C(N/N=C/c1cc(Cl)cc(Cl)c1O)c1cc(Cl)cc(Cl)c1 [Example 79] ? Its melting point was 248 to 249 °C

So, O=C(N/N=C/c1cc(C(F)(F)F)cc(Cl)c1O)c1ccc([N+](=O)[O-])cc1 [Example 328] ? Its melting point was 253 to 255 °C

So, O=C(N/N=C/c1c(O)cccc1F)c1ccccc1 [Example 245] ? Its melting point was 216 to 218 °C

###

Test system: Phytophthora infestans
Assay type: in vivo, Phytophthora infestans on tomato
statedConditions: hydrazone 50 ppm + 50 μM CuCl2.2H2O, applied 24 h before inoculation, assessed 7 days after inoculation, tomato
measurementType: TLB % Control
Field note: include the unit after the figure.

O=C(N/N=C/c1cc(Br)cc(Br)c1O)c1ccccc1F : 88.8%
C/C(=N\NC(=O)c1ccccc1)c1cccc([N+](=O)[O-])c1O : 31.0%
Cc1ccc(O)c(/C=N/NC(=O)c2ccccc2)c1 : 80.0%
O=C(N/N=C/c1ccccc1O)c1cccc(Cl)c1 : 80.0%
O=C(N/N=C/c1ccccc1O)c1ccc(Br)cc1 : 12.2%

`O=C(N/N=C/c1cc(Cl)cc(Cl)c1O)c1cccc([N+](=O)[O-])c1` on Phytophthora infestans gives TLB % Control = 98.0%

`O=C(N/N=C/c1ccccc1O)c1cccc(Br)c1` on Phytophthora infestans gives TLB % Control = 74.6%

`O=C(N/N=C/c1ccc(Cl)c(Cl)c1O)c1ccccc1` on Phytophthora infestans gives TLB % Control = 92.5%

`COc1ccc(O)c(/C(C)=N/NC(=O)c2cccc(Cl)c2)c1` on Phytophthora infestans gives TLB % Control = 28.0%

`C/C(=N\NC(=O)c1ccc(C)cc1)c1cc(Cl)cc(Cl)c1O` on Phytophthora infestans gives TLB % Control = 96.0%
